Would you mind telling me the reported normalised cell number of each entry?
experiment: differential killing of epithelial or mesenchymal cells, primary screen, imaging, PC-3E GFP, TEM4-18 mCherry, co-culture (AID 1345086); settings: imaging cell counts, measured here: mesenchymal TEM4-18 mCherry cell survival, at 1 µM;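 note: cells exposed to compound for 72 h before imaging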
Answers are plain numbers.

| molecule | normalised cell number |
| --- | --- |
| CC1(C)C2CC(=O)[C@]3(C)C(CC[C@@]4(C)[C@H](c5ccoc5)OC(=O)[C@H]5O[C@]543)[C@@]2(C)C(=O)C[C@H]1O (stereo partly specified) | 1.01 |
| COc1c2c(cc3c1OCO3)CC[N+](C)=C2 | 1 |
| CC1=C2CCC3C(CC[C@]4(C)C(=O)CCC34)[C@@]2(C)CCC1=O (stereo partly specified) | 1.12 |
| CCCN1CCC[C@@H]2Cc3[nH]ncc3C[C@H]21 | 1.1 |
| O=C1NC(=O)C(=O)C(=O)N1 | 0.98 |
| Nc1ccncc1 | 0.99 |

List normalised cell number for every entry below, keeping the order given.
1. C=C(C)[C@@H]1[C@H]2OC(=O)[C@@H]1[C@]1(O)C[C@H]3O[C@]34C(=O)O[C@H]2[C@]14C
2. C[C@]12CCC3C(CC[C@@H]4CC(=O)CC[C@]34C)C1CCC2=O (stereo partly specified)
3. CCC1(c2ccc(N)cc2)CCC(=O)NC1=O (stereo unspecified)

RESULT:
1.06
0.91
1.2

List normalised cell number for every entry below, keeping the order given.
1. C=C/C=C\CC1=C[C@@H](OC(=O)[C@@H]2[C@@H](C=C(C)C)C2(C)C)CC1=O
2. CC(C)=CCCC1(C)C=Cc2c(O)c3c(c(CC=C(C)C)c2O1)OC12C(=CC4CC1C(C)(C)OC2(C/C=C(/C)C(=O)O)C4=O)C3=O (stereo unspecified)
3. CC(=O)OCC1=C(C(=O)O)N2C(=O)[C@@H](NC(=O)CCCC(N)C(=O)O)C2SC1 (stereo partly specified)
4. COc1cc([C@@H]2c3cc4c(c(O)c3C[C@H]3COC(=O)[C@@H]32)OCO4)cc(OC)c1OC
5. NC(N)=NOCC[C@H](N)C(=O)O

RESULT:
[0.89, 1.13, 0.98, 0.16, 0.95]

List normalised cell number for every entry below, keeping the order given.
1. NCC(O)c1ccc(O)cc1 (stereo unspecified)
2. COc1cc2c(c(OC)c1OC)-c1ccc(O)c(=O)cc1C(N)CC2 (stereo unspecified)
3. C[C@]12CCC(=O)C=C1CCC1C2CC[C@@]2(C)C1CC[C@H]2O (stereo partly specified)
4. CC(C)CCCC1(C)C=Cc2c(O)c3c(c(CCC(C)C)c2O1)OC12C(CC4CC1C(C)(C)OC2(CCC(C)C(=O)O)C4O)C3=O (stereo unspecified)
5. CC1=CCCC2C1(C)CCC(C)C2(C)CC/C(C)=C/C[n+]1cn(C)c2c(N)ncnc21 (stereo unspecified)
6. NC1=NC(=O)N2CC12 (stereo unspecified)

RESULT:
1. 0.97
2. 0.95
3. 1.08
4. 0.88
5. 0.89
6. 0.88

QUERY: Which normalised cell number is reported for this molecule? CC(=O)C1CCC2C3CCC4C[C@H](O)CCC4(C)C3C[C@H](O)C12C (stereo partly specified)
RESULT: 1.11
